# pIC50 annotations
target: human recombinant HDAC1 (Homo sapiens); assay: HDAC1 enzyme activity inhibition assay (in vitro, fluorimetric); conditions: human recombinant HDAC1, fluorimetric kit, 30° C. 60 minutes
Sequence (Q13547 whole entry): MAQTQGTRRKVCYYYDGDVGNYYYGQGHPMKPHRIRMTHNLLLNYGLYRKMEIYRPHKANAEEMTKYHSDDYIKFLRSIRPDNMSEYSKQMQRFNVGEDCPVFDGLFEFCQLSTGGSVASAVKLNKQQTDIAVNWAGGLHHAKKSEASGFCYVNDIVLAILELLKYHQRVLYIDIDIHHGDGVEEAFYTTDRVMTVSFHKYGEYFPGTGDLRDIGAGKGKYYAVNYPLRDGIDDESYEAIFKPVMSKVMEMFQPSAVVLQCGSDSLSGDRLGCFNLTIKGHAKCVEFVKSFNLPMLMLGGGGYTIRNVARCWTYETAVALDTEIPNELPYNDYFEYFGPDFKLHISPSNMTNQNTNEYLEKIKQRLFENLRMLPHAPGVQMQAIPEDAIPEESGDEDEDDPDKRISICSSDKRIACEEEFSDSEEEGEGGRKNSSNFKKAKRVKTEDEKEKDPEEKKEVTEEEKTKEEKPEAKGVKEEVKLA
Please treat pIC50 as minus the base-10 logarithm of the molar concentration.

COMPOUND | ASSAYED TARGET | pIC50
C[C@@H]1CN(S(=O)(=O)c2ccccc2Cl)C[C@H](C)N1Cc1ccc(C(=O)NO)cc1 [Compound 110] | human recombinant HDAC1 (Homo sapiens) | 5.30

Kindly consider the entry below.
Recorded pIC50 (compound C[C@@H]1CN(C(=O)Cc2cccc(C3=CCC(C)(C)CC3)c2)C[C@H](C)N1Cc1ccc(C(=O)NO)cc1 [Compound 253] ): 4.65

* * *

Target: human recombinant HDAC6 (Homo sapiens, UniProt Q9UBN7)
Construct: purchased Calbiochem 382180
Sequence (Q9UBN7 1-1215): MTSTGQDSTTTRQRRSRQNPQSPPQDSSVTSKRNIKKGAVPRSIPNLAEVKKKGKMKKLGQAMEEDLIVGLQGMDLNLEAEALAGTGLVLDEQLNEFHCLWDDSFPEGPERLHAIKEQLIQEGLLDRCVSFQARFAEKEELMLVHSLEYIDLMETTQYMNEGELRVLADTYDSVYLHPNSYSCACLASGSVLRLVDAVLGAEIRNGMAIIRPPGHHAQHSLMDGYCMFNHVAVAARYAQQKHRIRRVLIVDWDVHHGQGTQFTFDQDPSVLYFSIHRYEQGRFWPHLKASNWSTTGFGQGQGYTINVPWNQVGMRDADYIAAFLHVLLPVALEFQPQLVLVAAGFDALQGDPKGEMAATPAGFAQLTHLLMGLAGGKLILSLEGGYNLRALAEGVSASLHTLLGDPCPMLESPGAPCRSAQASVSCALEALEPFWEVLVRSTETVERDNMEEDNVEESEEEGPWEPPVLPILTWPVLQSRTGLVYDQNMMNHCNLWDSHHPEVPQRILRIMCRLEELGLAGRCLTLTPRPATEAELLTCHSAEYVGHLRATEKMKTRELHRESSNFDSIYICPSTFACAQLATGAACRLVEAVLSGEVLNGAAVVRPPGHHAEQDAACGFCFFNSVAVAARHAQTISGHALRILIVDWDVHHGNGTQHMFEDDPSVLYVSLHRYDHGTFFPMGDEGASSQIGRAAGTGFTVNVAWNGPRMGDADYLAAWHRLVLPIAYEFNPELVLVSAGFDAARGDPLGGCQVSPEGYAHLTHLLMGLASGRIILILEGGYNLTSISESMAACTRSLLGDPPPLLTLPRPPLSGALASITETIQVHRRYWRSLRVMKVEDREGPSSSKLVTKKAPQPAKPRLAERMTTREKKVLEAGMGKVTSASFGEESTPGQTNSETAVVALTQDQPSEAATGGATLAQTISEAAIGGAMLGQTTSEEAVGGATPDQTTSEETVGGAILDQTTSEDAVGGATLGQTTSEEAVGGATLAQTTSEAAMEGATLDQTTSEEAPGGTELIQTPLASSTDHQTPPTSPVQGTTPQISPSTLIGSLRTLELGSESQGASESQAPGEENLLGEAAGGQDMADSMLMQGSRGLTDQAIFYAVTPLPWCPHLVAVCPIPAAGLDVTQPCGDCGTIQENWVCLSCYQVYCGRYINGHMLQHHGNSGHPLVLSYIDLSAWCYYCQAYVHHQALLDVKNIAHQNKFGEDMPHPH
Experiment: HDAC6 enzyme activity inhibition assay (in vitro, fluorimetric)
Type: biochemical
Conditions: human recombinant HDAC6, fluorimetric kit, same protocol as HDAC1
# log10(IC50) annotations
Hey, these are logged values: log10 of IC50, nM being the unit before logging.

COMPOUND | RECORDED RESULT
C[C@@H]1CN(Cc2ccc(C(=O)NO)cc2)C[C@H](C)N1C(=O)Nc1ccccc1 | 1.52

// assay human recombinant HDAC6 (Homo sapiens, UniProt Q9UBN7), entry C[C@@H]1CN(C(=O)c2ccccn2)C[C@H](C)N1Cc1ccc(C(=O)NO)cc1 , log10(IC50) value = 2.66

// assay human recombinant HDAC6 (Homo sapiens, UniProt Q9UBN7), entry C[C@@H]1CN(Cc2ccc(C(=O)NO)cc2)C[C@H](C)N1C(=O)c1cccc(Cl)c1 , log10(IC50) value = 1.46

// assay human recombinant HDAC6 (Homo sapiens, UniProt Q9UBN7), entry C[C@@H]1CN(Cc2ccc(C(=O)NO)cc2)C[C@H](C)N1Cc1ccccc1C1=CCN(S(C)(=O)=O)CC1 , log10(IC50) value = 2.03

// assay human recombinant HDAC6 (Homo sapiens, UniProt Q9UBN7), entry C[C@@H]1CN(Cc2c[nH]c3cc(C(=O)NO)ccc23)C[C@H](C)N1Cc1ccccc1 , log10(IC50) value = 2.93

* * *

target: human recombinant HDAC6 (Homo sapiens, UniProt Q9UBN7); construct: purchased Calbiochem 382180; experiment: HDAC6 enzyme activity inhibition assay (in vitro, fluorimetric); assay type: biochemical; conditions: HDAC6 selectivity over HDAC1
# HDAC6 selectivity (fold) annotations
The reply should be a number in fold, with the unit left off.

COMPOUND | ASSAYED TARGET | OBSERVATION TYPE | UNIT OF MEASURE | RECORDED RESULT
C[C@@H]1CN(Cc2ccccc2)C[C@H](C)N1Cc1ccc(/C=C/C(=O)NO)cc1 [Compound 175] | human recombinant HDAC6 (Homo sapiens, UniProt Q9UBN7) | HDAC6 selectivity (fold) | fold | 90
CC(=O)N1[C@H](C)CN(Cc2ccc(C(=O)NO)cc2)C[C@@H]1C [Compound 082] | human recombinant HDAC6 (Homo sapiens, UniProt Q9UBN7) | HDAC6 selectivity (fold) | fold | 369
CCN(CC)Cc1cccc(CN2[C@H](C)CN(Cc3ccc(C(=O)NO)cc3)C[C@@H]2C)c1 [Compound 426] | human recombinant HDAC6 (Homo sapiens, UniProt Q9UBN7) | HDAC6 selectivity (fold) | fold | 35
CCC(=O)N1[C@H](C)CN(Cc2ccc(C(=O)NO)cc2)C[C@@H]1C [Compound 293] | human recombinant HDAC6 (Homo sapiens, UniProt Q9UBN7) | HDAC6 selectivity (fold) | fold | 44

Kindly consider the entry below.
Recorded HDAC6 selectivity (fold) (compound C[C@@H]1CN(Cc2ccc(C(=O)NO)cc2)C[C@H](C)N1C(=O)Cc1cccc(-c2ccccc2)c1 [Compound 234] ): 17

* * *

Biological target: human recombinant HDAC6 (Homo sapiens)
Sequence (Q9UBN7 1-1215): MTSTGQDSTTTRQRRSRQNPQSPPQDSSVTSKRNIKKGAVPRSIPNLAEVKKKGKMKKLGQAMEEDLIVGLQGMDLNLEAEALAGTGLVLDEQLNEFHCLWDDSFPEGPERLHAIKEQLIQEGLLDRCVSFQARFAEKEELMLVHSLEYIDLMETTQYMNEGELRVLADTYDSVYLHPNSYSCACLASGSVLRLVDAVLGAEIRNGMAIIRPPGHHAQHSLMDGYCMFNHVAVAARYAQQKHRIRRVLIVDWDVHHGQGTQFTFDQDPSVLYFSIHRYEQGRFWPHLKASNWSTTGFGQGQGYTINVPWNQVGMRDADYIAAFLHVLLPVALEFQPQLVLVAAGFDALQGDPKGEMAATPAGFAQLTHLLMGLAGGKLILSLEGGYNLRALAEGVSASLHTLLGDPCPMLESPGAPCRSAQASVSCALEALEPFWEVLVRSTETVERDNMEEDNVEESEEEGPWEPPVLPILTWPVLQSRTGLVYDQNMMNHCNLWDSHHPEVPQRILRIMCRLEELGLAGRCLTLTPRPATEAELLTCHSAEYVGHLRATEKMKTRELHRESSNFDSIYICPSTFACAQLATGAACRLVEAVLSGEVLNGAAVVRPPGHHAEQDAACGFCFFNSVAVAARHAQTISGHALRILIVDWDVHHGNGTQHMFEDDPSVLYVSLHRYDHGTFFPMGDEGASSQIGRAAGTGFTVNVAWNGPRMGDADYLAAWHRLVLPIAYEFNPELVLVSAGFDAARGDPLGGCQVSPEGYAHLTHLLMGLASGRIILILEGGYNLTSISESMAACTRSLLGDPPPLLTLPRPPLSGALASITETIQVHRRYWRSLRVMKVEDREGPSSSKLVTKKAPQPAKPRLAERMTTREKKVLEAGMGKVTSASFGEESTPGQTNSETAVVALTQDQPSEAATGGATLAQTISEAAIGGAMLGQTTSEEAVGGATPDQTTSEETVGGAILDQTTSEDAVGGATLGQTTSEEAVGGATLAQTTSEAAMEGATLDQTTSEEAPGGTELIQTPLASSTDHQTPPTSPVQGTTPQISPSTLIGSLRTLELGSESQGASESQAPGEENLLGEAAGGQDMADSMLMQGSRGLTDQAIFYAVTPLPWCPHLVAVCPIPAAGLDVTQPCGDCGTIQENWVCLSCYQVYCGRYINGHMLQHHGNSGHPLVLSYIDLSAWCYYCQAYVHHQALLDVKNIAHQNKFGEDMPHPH
Assay: HDAC6 enzyme activity inhibition assay (in vitro, fluorimetric)
Conditions: human recombinant HDAC6, fluorimetric kit, same protocol as HDAC1
Experimental: In order to examine the HDAC6 selectivity of the compounds of formula 1 of the present invention by HDAC1 and HDAC6 enzymatic activity inhibition assays, an experiment was performed using a conventional substance as a control. HDAC enzyme activity was measured using a HDAC Fluorimetric Drug Discovery Kit (BML-AK511, 516, Enzo Life Science). […] Based on the resulting values, each IC50 value was calculated using GraphPad Prism4.0 program.
pIC50: −log10 of the molar value.
The threshold is inclusive: pIC50 of exactly 7 counts as criterion met; values below receive criterion not met.

COMPOUND | DISCRETE LABEL
Cc1ccccc1NC(=O)N1C[C@@H](C)N(Cc2ccc(C(=O)NO)cc2)[C@@H](C)C1 | criterion not met

Entry CC(=O)N1[C@H](C)CN(Cc2ccc(C(=O)NO)cc2)C[C@@H]1C : is its pIC50 no less than 7?
criterion met

Entry C[C@@H]1CN(Cc2ccc(C(=O)NO)cc2)C[C@H](C)N1Cc1cc(F)ccc1F : is its pIC50 no less than 7?
criterion not met

Entry C[C@@H]1CN(Cc2ccc(C(=O)NO)cc2)C[C@H](C)N1Cc1cccc(-c2ccncc2)c1 : is its pIC50 no less than 7?
criterion met
